test system: MCF7; test: NCI tumour cell line growth inhibition, 48 h
Activity calls are given as the source filed them. No stated cut-off is given here; in the data, active = GI50 up to about 1.1 µM and inactive = higher.
Classes used: True (active), False (inactive)

Molecule	Assigned class
CCOC(=O)c1nc2cc(C(F)(F)F)ccc2nc1Oc1ccc(C(=O)OC)cc1	False
COc1ccc2cc(C(=O)O)ccc2c1OC	False
CN1CCN(C(=S)N(C)C(=O)c2ccc(Cl)cc2)CC1	False
C=C1CC2(OC1=O)c1ccccc1CCc1ccccc12	False
CCOC(=O)C1=CC(C)(C(=O)OCC)Nc2c(nc(SC)[nH]c2=O)N1 (stereo not given)	False
Cc1nn(C(=O)c2ccncc2)c2c1C(c1ccc([N+](=O)[O-])cc1)SC(=N)N2 (stereo not given)	False
CCCCCCCCCCCCCC/C(C(=O)O)=C(\C)C(=O)O	False
CCOC(=O)c1cc(C2(OC)CCN(Cc3ccccc3)C2=O)c(-c2cc(C)no2)[nH]1 (stereo not given)	False
COC(=O)C1OC(O[C@H]2CC[C@]3(C)[C@H]4CC=C5[C@@H]6CC(C)(C)CC[C@]6(C(=O)OC6OCC(O)C(O)C6OC6OC(C)C(OC7OCC(OC8OCC(O)C(O)C8O)C(O)C7O)C(O)C6O)[C@H](O)C[C@@]5(C)[C@]4(C)CC[C@H]3C2(C)C)C(O)C(O)C1O (stereo not given in full)	True
Cc1ccc([S+]([O-])CC(CF)OCn2cc(C)c(=O)[nH]c2=O)cc1 (stereo not given)	False
CCOC(=O)NC1=C(N2CC2)C(=O)C(NC(=O)OCC)=C(N2CC2)C1=O	False
CC1(c2ccccc2)CCN(C2CC2)CO1 (stereo not given)	False
CC1=NN=C(N)NC1=CC(Sc1ccc(Cl)cc1)c1c(O)ccc2ccccc12 (stereo not given)	False
Cc1cn(C2CCC(/C=N\O)O2)c(=O)[nH]c1=O (stereo not given)	False
Cc1cc2nc(N)n[n+]([O-])c2cc1C	False
COC(=O)c1ccc2c(c1)sc1nc(-c3ccc(OC)cc3)cn12	False
Cc1cccc2c1Oc1cc(Cl)ccc1C2NC(=O)CCN1CCN(CCO)CC1 (stereo not given)	False
CC(C)(C)C1=CC(=C2C=Cc3cc(O)ccc3O2)C=C(C(C)(C)C)C1=O	True
CC(=O)NS(=O)(=O)c1ccc(NCc2cccc3c(=O)c4ccc(Cl)cc4oc23)cc1	False
COc1ccc(-c2cc(O)c3ccc(C)nc3n2)cc1	False

----------
test system: CCRF-CEM; experiment: NCI tumour cell line growth inhibition, 48 h
The source made the active and inactive calls. Cut-off read from the data, not from the text of the source: active = GI50 up to about 1.1 µM and inactive = higher.

Compound	Assayed system	GI50
CN1CC=C(C#CC(C)(C)O)CC1	CCRF-CEM	> 37.5 µM (inactive)
CC1CC[C@@]2(OC1)O[C@H]1C[C@H]3[C@@H]4CC[C@H]5C[C@@H](OC6OC(CO)C(OC7OC(CO)C(OC8OC(CO)C(O)C(OC9OC(C)C(OC%10OC(C)C(O)C(O)C%10O)C(O)C9O)C8OC8OCC(O)C(O)C8O)C(O)C7O)C(O)C6O)CC[C@]5(C)[C@H]4CC(=O)[C@]3(C)[C@H]1[C@@H]2C (stereo partly drawn)	CCRF-CEM	12.2 µM (inactive)
CCOC(=O)c1nc2cc(C(F)(F)F)ccc2nc1Oc1ccc(C(=O)OC)cc1	CCRF-CEM	97.1 µM (inactive)
CC(C)CCC[C@@H](C)C1CCC2[C@@H]3CC=C4C[C@@H](C(=O)NCCN(C)C)CC[C@]4(C)C3CC[C@@]21C (stereo partly drawn)	CCRF-CEM	23.8 µM (inactive)
NC(=O)C(Nc1ccc(Cl)cc1)c1cc2cc(Br)ccc2nc1Cl (stereo not drawn)	CCRF-CEM	23.8 µM (inactive)
CCOC(=O)/C(C#N)=C/N(CC)/N=C/c1ccccc1	CCRF-CEM	> 100 µM (inactive)
COC(=O)Cc1c([C@@]2(C)CCCC(C)(C)C2)ccc2c1C(=O)OC2	CCRF-CEM	6.49 µM (inactive)
CC(C)=C[C@H]1CCC2(OCCO2)[C@]1(C)CO	CCRF-CEM	> 100 µM (inactive)
CC1=C(CO)C(=O)O[C@@H]([C@@H](CO)[C@H]2CCC3C4C[C@@H](O)[C@@]5(O)CC=CC(=O)[C@]5(C)C4CC[C@@]32C)C1 (stereo partly drawn)	CCRF-CEM	34.1 µM (inactive)
O=C(Nc1nc2ccccc2n1Cc1ccc(Cl)cc1)NC12CC3CC(CC(C3)C1)C2	CCRF-CEM	76.7 µM (inactive)
Nc1nc2cc(CNc3ccc(C(=O)NC(CCC(=O)O)C(=O)O)cc3)ccc2nc1-c1ccccc1 (stereo not drawn)	CCRF-CEM	> 10 µM (inactive)
COc1ccc(OC)c([N+](=O)[O-])c1-c1nc2sc(Cl)cn2c1/C=N/N=C(N)N	CCRF-CEM	30.9 µM (inactive)
O=C(CP(c1ccccc1)c1ccccc1)c1cccc(C(=O)CP(c2ccccc2)c2ccccc2)c1	CCRF-CEM	6.76 µM (inactive)
c1ccc2c3c(ccc2c1)-c1[nH]ncc1CCO3	CCRF-CEM	32 µM (inactive)
C[C@]12CC[C@H]3[C@@H](CC=C4C[C@@H](N5CCCC5)CC[C@@]43C)[C@@H]1C[C@H](N1CCCCC1)[C@@H]2O	CCRF-CEM	> 100 µM (inactive)
CCN(CC)CCC(=O)c1ccc(Oc2ccccc2)cc1	CCRF-CEM	22.1 µM (inactive)
COc1cccc(NC(=O)CSc2nnc(-c3ccc(NC(C)=O)cc3)o2)c1	CCRF-CEM	79.1 µM (inactive)
Cc1ccc(C)c(NC(=O)NCc2ccc(Cl)cc2)c1	CCRF-CEM	8.51 µM (inactive)

----------
Each entry below carries its reported GI50.
test system: SK-MEL-5; experiment: NCI tumour cell line growth inhibition, 48 h
Activity calls are given as the source filed them. Cut-off read from the data, not from the text of the source: active = GI50 up to about 1.1 µM and inactive = higher.
Measured metric: GI50

> print(dat)
                                   compound  assayed.system  measured.metric               result
1  COc1cccc(NC(=O)CSc2nnc(-c3ccc(NC(C)=O)cc3)o2)c1        SK-MEL-5             GI50  > 100 µM (inactive)
2  CN1NC(c2ccc(Cl)cc2)=C(C#N)C(=O)CC1c1ccccc1 (stereo not given)        SK-MEL-5             GI50   72.9 µM (inactive)
3  CS(=O)(=O)Nc1ccc(Nc2c3ccccc3nc3ccccc23)cc1        SK-MEL-5             GI50   1.71 µM (inactive)
4  COC(=O)/C(=N\NC(N)=O)C(C(=O)C(=O)Nc1ccccc1C(=O)OC)c1nc2ccc(C(=O)c3ccccc3)cc2nc1O (stereo not given)        SK-MEL-5             GI50  > 100 µM (inactive)
5  Clc1cc(Cc2cc(Cl)c(Cl)c3c2OCOC3)c2c(c1Cl)COCO2        SK-MEL-5             GI50   43.2 µM (inactive)

----------
system: Hs-578T; experiment: NCI tumour cell line growth inhibition, 48 h
Calls of active or inactive are those of the source. Rule as the data show it: active = GI50 up to about 1.1 µM and inactive = higher.
Classes used: t (active), f (inactive)

> print(dat)
                                    compound  assigned.class
 1                 Cc1cc(=O)oc2c(C)c(O)ccc12               f
 2  COc1cc2c(cc1C[N+](C)(C)CSc1ccccc1)-c1ccccc1CC2               f
 3  CC(=O)OC(C#N)CC(C)(C)/[N+]([O-])=[N+](\[O-])C(C)(C)CC(C#N)OC(C)=O (centres undefined)               f
 4  CSc1nc2c(c(N3CCOCC3)n1)C(O)n1c(nc3ccccc31)S2 (centres undefined)               f
 5  O=C1NC(=S)NC(=O)C1C(c1ccc([N+](=O)[O-])cc1)C1C(=O)NC(=S)NC1=O.c1ccncc1               f
 6  CC(Cc1ccccc1)Nc1ncnc2c1ncn2C1OC(CO)CC1O (centres undefined)               f
 7  CC1(c2ccccc2)CCN(C2CC2)CO1 (centres undefined)               f
 8  [N-]=[N+]=NCC1OC(n2cnc3c(N)ncnc32)C2OC12 (centres undefined)               f
 9  COc1ccc(CN(Cc2ccc(OC)cc2)C(=O)CC2(O)C=CCC2)cc1 (centres undefined)               f
10         CCOC(=O)c1ccc(-c2ccc(Cl)cc2)[nH]1               f
11  CCN1C/C(=C\c2cc(OC)c(OC)c(OC)c2)C2=NN(c3ccccc3)C(c3cc(OC)c(OC)c(OC)c3)C2C1 (centres undefined)               t
12     CN1CCN(C(=S)N(C)C(=O)c2ccc(Cl)cc2)CC1               f
13  CN(C)N1C(=C(C#N)C#N)C(c2ccccc2)CC1C#N (centres undefined)               f
14  CCOC(=O)NC1=C(N2CC2)C(=O)C(NC(=O)OCC)=C(N2CC2)C1=O [DIAZIQUONE]               f
15                    O=C(NN=C1NCCN1)c1ccco1               f
16                 Cc1ccccc1NC(=N)Nc1ccccc1C               f
17  COc1cc(COC(=O)N(CC(=O)O)c2ccccc2)c([N+](=O)[O-])cc1OC               f
18  Nc1nc(O)c2ncn(C3C=CC(CO)O3)c2n1 (centres undefined)               f
19      O=C(NC1CCN(Cc2ccccc2)CC1)c1cccc(I)c1               f
20  COc1cccc2c(Nc3ccc(S(=O)(=O)Nc4ncccn4)cc3)c3ccc([N+](=O)[O-])cc3nc12               f
21       CCOc1ccc(NCc2cc(OC)c(OC)c(OC)c2)cc1               f
22      C=CCCCC1CCCNC1=O (centres undefined)               f
23  CCOC(=O)c1cc(-c2ccc(Cl)cc2)c([N+](=O)[O-])n1C               f
24  COC(=O)C1CC(C=[N+](C)C)=C(SC)N1C(=O)OCc1ccccc1 (centres undefined)               f
25  Cc1c2ccccc2c(C2C3C(=O)N(c4cccc5ccccc45)C(=O)C3ON2Cc2ccc(CC(N)=O)cc2)c2ccccc12 (centres undefined)               f
26         COC(=O)c1nn2ccc3ccccc3c2c1C(=O)OC               f
27  O=C(Nc1ccccc1)c1cc(S(=O)(=O)N2CCNC2=O)c(S)cc1Cl               f
28  CS(=O)(=O)Nc1ccc(Nc2c3ccccc3nc3ccccc23)cc1               f
29      CCCCNC(=O)OCCN=c1c2ccccc2ccc2ccccc12               f
30  CS(=O)(=O)c1nc(-c2cc3c(c(S(C)(=O)=O)n2)CCCC3)cc2c1CCCC2               f
31      CCOC(=O)c1nc2ccccc2nc1NCc1ccc(OC)cc1               f
32             CCN(CC)c1ccc(NC(=S)NN(C)C)cc1               f
33  O=C1NC(=O)C2C3C=CC(C12)C1C2C(=O)NC(=O)C2C31 (centres undefined)               f
34  COc1ccc(Oc2nc3cc(C(F)(F)F)ccc3nc2C(C)C)cc1               f
35          CN(C)CCCOCCn1c2c(c3ccccc31)CCCC2               f
36  O=C(CP(c1ccccc1)c1ccccc1)c1cccc(C(=O)CP(c2ccccc2)c2ccccc2)c1               f
37  CCn1c(-c2ccc(F)cc2)nc2c1C(=O)c1ccccc1C2=O               f
38  O=C1C(NCCO)=C(N2CC2)C(=O)C(NCCO)=C1N1CC1               f
39  CCOC(=O)Oc1cc2ccsc2c2c1c1ccccc1n2C(=O)OCC               f
40  COc1cc(O)c2c(=O)cc(C3(O)C=CC(=O)C=C3)oc2c1               t
41   CN1CCN(c2ccncc2S(=O)(=O)N2CCN(C)CC2)CC1               f
42  Nc1nc2cc(CNc3ccc(C(=O)NC(CCC(=O)O)C(=O)O)cc3)ccc2nc1-c1ccccc1 (centres undefined)               f
43  C=CC[C@]12C=C(OC)[C@@H](O)[C@](OC)(C(c3cc(OC)c4c(c3)OCO4)[C@H]1C)[C@H]2OC(C)=O (some centres undefined)               f
44  NC(C/C=C/P(=O)(O)O)C(=O)O (centres undefined)               f

The measurements presented in this section are drawn from ChEMBL document CHEMBL1201862.
